Hello, the source for this data is patent US5475130A, in case you need it.

- Study target: ACAT (acyl-coenzyme A cholesterol acyltransferase) (Oryctolagus cuniculus, UniProt G1SFD9)
- Construct: A rabbit small intestinal microsome fraction was prepared in the usual way; from tissue; host or cells: rabbit small intestine, microsome fraction
- Assay: ACAT inhibition activity (rabbit small intestinal microsome fraction, [1-^14 C]oleyl coenzyme A)
- Assay type: biochemical
- Condition set: rabbit small intestinal microsome fraction (250 μg as protein), 37° C., 6 minutes, pH 7.4, 1% bovine serum albumin; read-out: Activity (strength of the activity, IC50 value)
pIC50: −log10 of the molar value.
A collection of compounds and their measured pIC50

Please review the entries below; each comes with its answer.
{"Compound": "CCCCCCCCCCCCCCSCC(=O)Nc1c(C)cccc1C(C)(C)C", "pIC50": "8.00 to 9.00"}
{"Compound": "CCCCCCCCCCCCCCSCCC(=O)Nc1c(C(C)C)cccc1C(C)C", "pIC50": "8.00 to 9.00"}
{"Compound": "CCCCCCCCCCCCCCCCCCSCC(=O)Nc1c(C(C)C)cccc1C(C)C", "pIC50": "8.00 to 9.00"}
{"Compound": "CCCCCCCCCCCCSCC(=O)Nc1c(C(C)C)cccc1C(C)C", "pIC50": "7.00 to 8.00"}

Need pIC50, item CC(C)c1cccc(C(C)C)c1NC(=O)CSCc1ccc(C(C)(C)C)cc1
7.00 to 8.00

Now consider CCCCCCCCCCCCS(=O)(=O)CC(=O)Nc1c(C(C)C)cccc1C(C)C and answer again.
7.00 to 8.00

Similarly, CCCCCCCCCCCCCCSCCCC(=O)Nc1c(C(C)C)cccc1C(C)C ?
8.00 to 9.00

CCCCCCCCCCCCCCCCS(=O)(=O)CC(=O)Nc1c(C(C)C)cccc1C(C)C ?
7.00 to 8.00

Note, next up: CCCCCCCCCCCCCCSC(C)(C)C(=O)Nc1c(C(C)C)cccc1C(C)C
7.00 to 8.00

====

Consider the following compounds and their measured IC50 readings.
- Study target: ACAT (acyl-coenzyme A cholesterol acyltransferase) (Oryctolagus cuniculus, UniProt G1SFD9)
- Construct: A rabbit small intestinal microsome fraction was prepared in the usual way; from tissue; host or cells: rabbit small intestine, microsome fraction
- Sequence (G1SFD9 1-524): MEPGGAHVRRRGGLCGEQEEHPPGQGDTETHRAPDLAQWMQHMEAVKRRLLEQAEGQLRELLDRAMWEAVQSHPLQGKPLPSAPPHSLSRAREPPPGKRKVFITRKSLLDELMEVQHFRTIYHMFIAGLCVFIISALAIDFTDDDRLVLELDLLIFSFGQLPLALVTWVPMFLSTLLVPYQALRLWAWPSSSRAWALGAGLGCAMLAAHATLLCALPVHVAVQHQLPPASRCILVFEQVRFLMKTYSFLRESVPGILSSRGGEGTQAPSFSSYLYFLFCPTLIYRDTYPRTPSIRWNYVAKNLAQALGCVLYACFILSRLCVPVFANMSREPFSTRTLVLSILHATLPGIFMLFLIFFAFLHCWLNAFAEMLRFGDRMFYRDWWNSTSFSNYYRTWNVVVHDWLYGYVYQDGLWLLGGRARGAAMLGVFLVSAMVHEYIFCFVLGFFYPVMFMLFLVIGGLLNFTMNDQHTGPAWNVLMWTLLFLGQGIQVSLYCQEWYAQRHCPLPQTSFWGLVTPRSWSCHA
- Assay: ACAT inhibition activity (rabbit small intestinal microsome fraction, [1-^14 C]oleyl coenzyme A)
- Assay type: biochemical
- Condition set: rabbit small intestinal microsome fraction (250 μg as protein), 37° C., 6 minutes, pH 7.4, 1% bovine serum albumin; read-out: Activity (strength of the activity, IC50 value)

{"Compound": "CCCCCCCCCCCCCCCCSCC(=O)Nc1c(C(C)C)cccc1C(C)C", "Attribute measured": "IC50", "Recorded measurement": "10 to 100 nM"}
{"Compound": "CCCCCCCCCCCCCCS(=O)(=O)CC(=O)Nc1c(C(C)C)cccc1C(C)C", "Attribute measured": "IC50", "Recorded measurement": "10 to 100 nM"}

API: the following record is the query input.
For the compound shown here, CCCCCCCCCCCCCC[S+]([O-])CC(=O)Nc1c(C(C)C)cccc1C(C)C (stereo not drawn) , give the reported IC50.
10 to 100 nM
